system: β-galactosidase in CMV-LacZ C2C12 myotubes; assay: CMV-LacZ secondary screen in C2C12 myotubes (β-Gal stabilizing assay); assay type: cell-based, mouse; conditions: 0.5 uM; C2C12 CMV-LacZ myotubes; fold relative to DMSO
CMV-LACZ in Myotubes, signal relative to DMSO of 0.9 or higher: YES. Under 0.9: NO.

Ask: Exam item: decide whether the reported CMV-LACZ in Myotubes, signal relative to DMSO for `Cc1ccccc1NC(=O)c1ccc2c(O)c(S(=O)(=O)c3ccccc3)c(=O)[nH]c2c1` is at least 0.9.
Result: YES

Ask: Is it the case that `O=c1[nH]c(SCc2ccc(Cl)cc2)nc2ccsc12` has CMV-LACZ in Myotubes, signal relative to DMSO reaching or exceeding 0.9?
Result: YES

Ask: Decide: is the reported value of CMV-LACZ in Myotubes, signal relative to DMSO for `COc1ccc(OC)c(NC(=O)CN2CCC(NC(=O)c3ccccc3C)CC2)c1` equal to or greater than 0.9?
Result: YES

Ask: Threshold query (CMV-LACZ in Myotubes, signal relative to DMSO >= 0.9) on `COc1ccc(CCNC(=O)Cn2nnc(C(=O)Nc3ccc(Br)cc3)c2N)cc1OC`
Result: NO

Ask: Decide: CMV-LACZ in Myotubes, signal relative to DMSO of `COc1ccc(Cl)cc1NC(=O)c1cc(-c2cc(C)ccc2O)n[nH]1` >= 0.9?
Result: YES
